What relative growth, lower = inhibition was measured for each of the following?
- assay_procedure: Quantitative high throughput screen for delayed death inhibitors of the malarial parasite plastid: Hit Validation with Dd2 at 48 hr using Flow Cytometry
- condition: P. falciparum Dd2 growth, flow cytometry SYBR/MitoTracker; at 50 µM (top of the series)
Results filed as inconclusive are left out.
Answers are plain numbers.

CN(C)S(=O)(=O)c1cc(NC(=O)C2=COCCO2)ccc1Cl | 1.39
CC1=Nc2cc(C(=O)N3CCCC3)ccc2Sc2ccc(C)cc21 | 0.214
CCOc1ccc(S(=O)(=O)Nc2cc(S(=O)(=O)N(CC)CC)ccc2N2CCCC2)cc1 | 0.264

Let us move to another entry and its relative growth, lower = inhibition.
Data request: Suppose we examine the molecule Cc1ccc(S(=O)(=O)Nc2ccc(C(=O)Nc3ccncc3)cc2)cc1 ; what relative growth, lower = inhibition value has been reported?
Data returned: 0.257

---

- assay_procedure: Quantitative high throughput screen for delayed death inhibitors of the malarial parasite plastid: Hit Validation with Dd2 at 48 hr using Flow Cytometry
- condition: P. falciparum Dd2 growth, flow cytometry SYBR/MitoTracker
Inconclusive results are not listed. The source made the active and inactive calls. Calls come from the whole dose curve; as a rule, active = well fitted curve in the direction sought with a large enough effect; inconclusive = small, poorly fitted or top-dose-only effect; inactive = flat fitted curve, though single readings scatter.
# output must be one of active, inactive

Solved cases (3 shown):
Brc1cccc(OCCCCN2CCCCC2)c1 | active
CN(C)c1ccc(CN(C(=O)c2ccccc2Br)C2CCS(=O)(=O)C2)cc1 (stereo not drawn) | active
COCCNC(=O)c1cccc(OC2CCN(Cc3cccc(SC)c3)CC2)c1 | inactive

Data request: // outcome(item) with item = Clc1ccc(-c2c[n+](Cc3ccc(Cl)cc3Cl)c3n2CCCCC3)cc1
Data returned: active

Data request: // outcome(item) with item = CCCc1cc(=O)oc2cc(OC(C)C(=O)NCc3ccccn3)c(Cl)cc12 (stereo not drawn)
Data returned: active

Data request: // outcome(item) with item = CCCCN(CCCNC(=O)C1CCN(C(=O)c2cc3sccc3n2C)CC1)Cc1ccccc1
Data returned: active

Data request: // outcome(item) with item = O=C(CNC(=O)C1CCCCC1)OC(C(=O)c1ccccc1)c1ccccc1 (stereo not drawn)
Data returned: inactive

Data request: // outcome(item) with item = COc1ccc2c(ccc[n+]2CC(=O)c2ccccc2)c1
Data returned: active

Data request: // outcome(item) with item = COc1cccc(CN2CCN(c3nc4nonc4nc3N3CCCCC3)CC2=O)c1
Data returned: active

Data request: // outcome(item) with item = Cc1ccc(CN2CCC(n3nccc3NC(=O)c3ccccc3C)CC2)o1
Data returned: active

Data request: // outcome(item) with item = CCC(=O)OC1C(N(C)C)CC(C)O[C@H]1O[C@H]1[C@H](C)[C@@H](O[C@H]2CC(OC)[C@@H](O)C(C)O2)[C@H](C)C(=O)O[C@@H](CC)[C@](C)(O)[C@@H](O)[C@H](C)C(=O)[C@@H](C)C[C@]1(C)O (stereo partly drawn)
Data returned: active

---

- assay_procedure: Quantitative high throughput screen for delayed death inhibitors of the malarial parasite plastid: Hit Validation with Dd2 at 48 hr using Flow Cytometry
- condition: P. falciparum Dd2 growth, flow cytometry SYBR/MitoTracker
- Description: The goal of this screen is to discover new antimalarial compounds that act by inhibiting the development of the apicoplast organelle in the malarial parasite Plasmodium falciparum. […] We developed a cell-based quantitative high throughput screen that leverages this "delayed death" phenotype to enrich for compounds that target the apicoplast. […] Growth inhibition was detected by a decrease in luciferase activity. […] This hit validation assay used the Dd2 cell line and measured at 48 hours. […]
Records with an inconclusive call do not appear. Calls of active or inactive are those of the source. Calls follow the shape of the dose curve; as a rule, active = well fitted curve in the direction sought with a large enough effect; inconclusive = small, poorly fitted or top-dose-only effect; inactive = flat fitted curve, though single readings scatter.
# output must be one of T (active), F (inactive)

Solved cases (5 shown):
CCOc1ccc(NC(=O)C[n+]2ccc(N(C)C)cc2)cc1 | T
CCCCOc1ccc(N2C(N)=NC(N)=NC23CCCCC3)cc1 | T
CCOC(=O)c1ccc2c(c1)n(CC)c(/C=C/N(C)c1ccccc1)[n+]2CC | T
COc1ccc(NC(=S)N2CCC(Cc3ccccc3)CC2)cc1OC | T
O=C(Nc1ccccc1N1CCOCC1)c1cccc(S(=O)(=O)N2CCOCC2)c1 | T

Data request: // outcome(item) with item = c1csc(CNc2ncnc3nc[nH]c23)c1
Data returned: F

Data request: // outcome(item) with item = CCCCN(CCCNC(=O)c1ccc(CS(=O)(=O)c2ccc(OC)cc2)o1)Cc1ccccc1
Data returned: T
